Measured values drawn from the Human Domainome abundance scans (Beltran et al. 2025) for this set.

B1: Chromodomain-helicase-DNA-binding protein 4, residues 623 to 675; numbered along this chain, Q14839 (parent)
chain: MIHRILNHSVDKKGHVHYLIKWRDLPYDQASWESEDVEIQDYDLFKQSYWNHR

# Variants of: B1
# Experiment description: abundance fitness (aPCA) (normalised: wild type 0, dead -1); higher = more abundant; growth selection in yeast, the domain comes from the species named
# Conditions used: Homo sapiens
# if value of abundance fitness reaches -0.4, tag y; if it stays below, tag n

| Mutant id | Category |
| --- | --- |
| L19D | n |
| L19S | n |
| P26F | n |
| H15S | y |
| Y27Q | y |
| K13H | y |
| R23W | y |
| S31V | n |
| E33C | y |
| Q29K | y |
| R23A | y |
| K21N | n |
| H17S | y |
| D24W | y |
| D28K | y |
| Q29D | y |
| W22K | n |
| D28V | n |
| V16S | n |
| P26K | n |
| P26R | n |
| K21T | n |
| L19Y | y |
| L19T | n |
| S31D | n |
| P26D | y |
| Y18M | n |
| Y27E | y |
| Y27M | y |
| W22M | n |
